Source of measurements: ChEMBL document CHEMBL1857833

Give IC50 for every item shown.
System: Leishmania donovani
Assay: DNDI: Inhibition of formation of Leishmania donovani (strain MHOM/ET/67/L82) axenic amastigotes, in vitro.
Assay type: functional, organism-based
Numbers only, in µg/mL.

CCCCc1ccc(-c2nc(CNC3CCCCCC3)co2)cc1; 10.1

Provide IC50 for all items below, preserving their order.
1. CCC(CC)N/C(=N\O)c1ccccc1-c1ccccc1
2. CCCCc1ccc(-c2nc(CNC[C@@H]3CC[C@H]4C[C@@H]3C4(C)C)co2)cc1
3. O/N=C(\NCC1CCCCC1)c1ccccc1-c1ccccc1
4. CCCCCC(C)NCc1coc(-c2ccc(CCCC)cc2)n1 (configuration not stated)
5. CC1CCC(N/C(=N\O)c2cccnc2Oc2ccccc2Cl)CC1 (configuration not stated)
6. O/N=C(/NC1CCCCC1)c1cccnc1Oc1ccccc1F
7. O/N=C(\NC1CCCCC1)c1ccsc1

1. 13.3
2. 4.84
3. 4.75
4. 5.25
5. 6.18
6. 19.9
7. 13.6

Provide IC50 for all items below, preserving their order.
1. CCCCCC(C)NCc1coc(-c2ccc(-c3ccccc3)cc2)n1 (configuration not stated)
2. O/N=C(\NC1CCCCC1)c1ccccc1
3. O/N=C(\NCC1CC1)c1ccccc1-c1ccccc1
4. COc1cccc(/C(=N/O)NC2CCCCC2)c1

5
40.9
32.3
34

---

Assay: in vitro
Conditions: mouse, liver microsomes, t (1 / 2)
Description: DNDI: half life in mouse liver microsomes at a concentration of 1uM
Give half-life at 1 µM for every item shown.
Please answer using a numeric value trailed by its unit.

Worked examples follow.
CCCCCC(C)NCc1coc(-c2ccccc2Oc2ccccc2)n1 (stereo unspecified); 4 min
CCCCc1ccc(-c2nc(CNC(C)CC)co2)cc1 (stereo unspecified); 20 min
CCCCCOc1ccc(-c2nc(CNC3CC(C)CC(C)(C)C3)co2)cc1 (stereo unspecified); 107 min
CCCCCC(C)NCc1coc(-c2ccc(OCCc3ccccc3)cc2)n1 (stereo unspecified); 22 min
CCCCCOc1ccc(-c2nc(CN[C@@H]3C[C@@H]4C[C@H]([C@H]3C)C4(C)C)co2)cc1; 14 min
CCCCCC(C)NCc1coc(-c2ccc(C(C)C)cc2)n1 (stereo unspecified); 24 min
CCCCc1ccc(-c2nc(CNCC)co2)cc1; 11 min
Cc1ccc(Oc2ncccc2/C(=N/O)NC2CCCCC2)cc1; 3.48 min

Provide half-life at 1 µM for all items below, preserving their order.
1. O/N=C(/Nc1ccc(F)cc1)c1ccccc1-c1ccccc1
2. CCCCc1ccc(-c2nc(CNCc3c(OC)cccc3OC)co2)cc1
3. CCCCCC(C)NCc1coc(-c2ccc(OC3CCCCC3)cc2)n1 (stereo unspecified)
4. CCCCc1ccc(-c2nc(CNCc3cccnc3)co2)cc1
5. CCCCCC(C)NCc1coc(-c2ccc(OC3CCCC3)cc2)n1 (stereo unspecified)
6. CCCCCC(C)NCc1coc(-c2ccc(OC(C)CC)cc2)n1 (stereo unspecified)
7. CCOCCCNC(c1nc(-c2ccccc2)c(N2CCCCC2)o1)C(C)CC (stereo unspecified)

14 min
13 min
65 min
19 min
67 min
257 min
3 min

---

Biological target: MDR1 (ABCB1) (Homo sapiens)
Sequence (P08183 whole entry): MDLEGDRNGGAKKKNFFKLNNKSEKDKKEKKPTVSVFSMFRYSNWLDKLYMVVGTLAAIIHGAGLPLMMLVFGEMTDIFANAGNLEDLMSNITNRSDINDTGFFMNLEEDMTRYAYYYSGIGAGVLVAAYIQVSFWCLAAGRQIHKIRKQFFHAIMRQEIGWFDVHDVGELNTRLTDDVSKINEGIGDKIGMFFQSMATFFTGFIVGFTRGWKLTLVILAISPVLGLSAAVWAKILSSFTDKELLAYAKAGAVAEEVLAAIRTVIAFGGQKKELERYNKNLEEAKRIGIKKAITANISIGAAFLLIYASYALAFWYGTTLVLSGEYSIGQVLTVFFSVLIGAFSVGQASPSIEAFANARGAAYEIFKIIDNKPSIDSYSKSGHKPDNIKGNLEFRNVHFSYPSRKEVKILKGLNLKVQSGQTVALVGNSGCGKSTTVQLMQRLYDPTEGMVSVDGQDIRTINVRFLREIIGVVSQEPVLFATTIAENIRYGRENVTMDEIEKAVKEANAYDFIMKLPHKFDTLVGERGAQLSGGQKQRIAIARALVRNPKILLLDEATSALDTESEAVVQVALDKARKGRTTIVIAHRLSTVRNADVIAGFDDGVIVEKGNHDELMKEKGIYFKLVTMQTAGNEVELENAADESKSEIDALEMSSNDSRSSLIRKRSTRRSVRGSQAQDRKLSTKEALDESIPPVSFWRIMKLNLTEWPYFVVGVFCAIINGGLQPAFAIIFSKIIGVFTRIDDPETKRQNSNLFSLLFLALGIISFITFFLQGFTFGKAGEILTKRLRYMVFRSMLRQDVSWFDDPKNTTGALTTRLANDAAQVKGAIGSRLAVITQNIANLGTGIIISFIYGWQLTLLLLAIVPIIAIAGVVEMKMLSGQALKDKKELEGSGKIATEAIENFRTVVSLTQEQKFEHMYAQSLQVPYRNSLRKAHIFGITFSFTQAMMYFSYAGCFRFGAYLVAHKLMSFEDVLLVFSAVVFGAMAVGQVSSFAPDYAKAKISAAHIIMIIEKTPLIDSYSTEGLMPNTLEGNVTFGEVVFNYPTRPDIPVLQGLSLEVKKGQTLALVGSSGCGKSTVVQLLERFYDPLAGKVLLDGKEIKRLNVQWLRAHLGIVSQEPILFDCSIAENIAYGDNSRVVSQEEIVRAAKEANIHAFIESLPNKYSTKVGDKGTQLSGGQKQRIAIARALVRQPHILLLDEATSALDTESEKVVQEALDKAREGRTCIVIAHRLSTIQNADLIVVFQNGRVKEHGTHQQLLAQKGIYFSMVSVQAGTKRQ
Experiment: DNDI: % of compound recovered from basolateral to apical permeability assay in MDCK cells transfected with human MDR1 after 60 mins at a concentration of 3uM
Type: ADME, cell-based, Canis lupus familiaris
Details: dog
Measure Name: recovery at 1 h, 3 µM (%)
Give bare numbers, in %.

Tell me its recovery at 1 h, 3 µM on MDR1 (ABCB1) (Homo sapiens): `CN(C)CCNc1nc(Oc2cccc3ccccc23)c2sccc2n1`
110

---

Assay: in vitro
Details: mouse, liver microsomes, t (1 / 2)
Measure Name: half-life at 1 µM (min)
Answers are plain numbers, in min.

O=C(NC1CCCCC1)c1ccccc1-c1ccccc1; 7
O/N=C(\NC1CCCCC1)c1ccc(F)cc1; 16
COc1ccc(/C(=N\O)Nc2ccccc2)cc1; 7

Provide half-life at 1 µM for all items below, preserving their order.
1. CCCCc1ccc(-c2nc(CNCCN3CCCC3)co2)cc1
2. CCCCCC(C)NCc1coc(-c2ccc(OCc3ccc(C)cc3)cc2)n1 (configuration not stated)
3. Cc1ccc(/C(=N/O)NC2CCCCC2)c(Oc2c(F)cccc2F)n1
4. O/N=C(/c1ccccc1-c1ccccc1)N1CCCCC1
5. COc1ccc(/C(=N/O)Nc2cccc(C(F)(F)F)c2)cc1
6. COc1ccc(/C(=N/O)Nc2cccc(-c3ccccc3)c2)cc1
7. CC(C)(C)c1ccc(Oc2ncccc2/C(=N/O)NC2CCCCC2)cc1
8. CCCCCC(C)NCc1coc(-c2ccc(Oc3ccccc3)cc2)n1 (configuration not stated)

26
64
3
5
3
13
9
31

Tell me its half-life at 1 µM given `CCCCCOc1ccc(-c2nc(CNC3CCCCCC3)co2)cc1` as the entry.
101

---

Test: DNDI: Cytotoxicity against L929 mouse fibroblasts, 72 hour.
Format: toxicity, cell-based
Conditions: mouse, L929 mouse fibroblasts
Measure Name: IC50 at 72 h (µg/mL)
One number for each entry, in µg/mL.

CCCCCC(C)NCc1coc(-c2ccc(Cl)cc2Cl)n1 (stereo unspecified); 3.47
c1ccc(-c2ccc(-c3nc(CNC4[C@H]5C[C@@H]6C[C@@H](C[C@H]4C6)C5)co3)cc2)cc1 (stereo partly specified); 9.8
CC(C)c1ccc(Oc2ncccc2/C(=N\O)NC2CCCCC2)cc1; 6.75

Provide IC50 at 72 h for all items below, preserving their order.
1. CC1(C)[C@H]2CC[C@@H](CNCc3coc(-c4ccc(Cl)cc4)n3)[C@@H]1C2
2. CCCCc1ccc(-c2nc(CNCCC)co2)cc1
3. CCCCCC(C)NCc1coc(-c2ccc3c(c2)OCO3)n1 (stereo unspecified)
4. CCCCCC(C)NCc1coc(-c2ccccc2Cl)n1 (stereo unspecified)

1: 3.52; 2: 4.29; 3: 10; 4: 7.17

---

Give IC50 at 72 h for every item shown.
Experiment: DNDI: Cytotoxicity against L929 mouse fibroblasts, 72 hour.
Type: toxicity, cell-based
Details: mouse, L929 mouse fibroblasts

Worked examples follow.
CCCC(CCC)NCc1coc(-c2ccc(OCC)cc2)n1; 6.37 µg/mL
COc1ccccc1CNC(c1ccccc1)c1nc(-c2ccccc2)c(N2CCOCC2)o1 (stereo not given); > 10 µg/mL
CCCCc1ccc(-c2nc(-c3ccccc3)c(C)o2)cc1; > 10 µg/mL
Cc1cc(N2CCN(C(=O)OC(C)(C)C)CC2)n2nc(-c3cccc(F)c3)cc2n1; > 10 µg/mL
CC(C)(C)c1ccc(Oc2ncccc2/C(=N/O)NC2CCCCC2)cc1; > 10 µg/mL
CC1(C)[C@H]2CC[C@@H](CNCc3coc(-c4sccc4Cl)n3)[C@@H]1C2; > 50 µg/mL

Provide IC50 at 72 h for all items below, preserving their order.
1. Cc1ccc(CNC(c2nc(Cc3ccccc3)c(N3CCOCC3)o2)c2ccccc2F)cc1 (stereo not given)
2. CCOc1ccc(-c2nc(CNC3C[C@@H]4C[C@H]([C@H]3C)C4(C)C)co2)cc1 (stereo not given in full)
3. O=C1CCCN1CCCNc1cc(-c2ccccc2)nc2cc(-c3cccc(F)c3)nn12
4. CCC(CC)N/C(=N\O)c1ccccc1-c1ccccc1

["> 10 µg/mL", "3.51 µg/mL", "> 10 µg/mL", "> 10 µg/mL"]

---

Test: DNDI: in vitro intrinsic clearance in mouse liver microsomes at a concentration of 10uM
Assay type: ADME, Microsome
Details: read-out: CLint in vitro
Measure Name: microsomal CLint at 10 µM (µL/min/mg)
Answers are plain numbers, in µL/min/mg.

Worked examples follow.
O/N=C(/NC1CCCCC1)c1cccnc1Oc1ccccc1; 275
COc1cc(C)ccc1Oc1ncccc1/C(=N/O)NC1CCCCC1; 76
CCCCCC(C)NCc1coc(-c2ccc(C)cc2)n1 (centres undefined); 31

// below: microsomal CLint at 10 µM requested for another molecule
Tell me its microsomal CLint at 10 µM given CCCCCC(C)NCc1coc(-c2ccc(OCC)cc2)n1 (centres undefined) as the entry.
3

---

Experiment: DNDI: Cytotoxicity against L929 mouse fibroblasts, CYTO-SP, 24 hour
Assay type: toxicity, cell-based
Conditions: mouse, L929 mouse fibroblasts
Measure Name: IC50 at 24 h

Worked examples follow.
Clc1ccc(-c2nc(CNC3[C@H]4C[C@@H]5C[C@@H](C[C@H]3C5)C4)co2)cc1 (stereo partly specified); > 50 µg/mL
CC1CC(N/C(=N\O)c2cccnc2Oc2ccc(C(C)C)cc2)CC(C)(C)C1 (stereo unspecified); 21.9 µg/mL
CCCCCC(C)NCc1coc(-c2ccccc2C)n1 (stereo unspecified); 16 µg/mL
CCCCC[C@H](C)NCc1coc(-c2ccc(Cl)cc2)n1; 37 µg/mL
CON(C)C(=O)c1ccccc1-c1ccccc1; > 50 µg/mL

Provide IC50 at 24 h for all items below, preserving their order.
1. COc1ccc(C(=O)Cc2ccccc2)cc1
2. CCCCc1ccc(-c2nc(CN[C@@H]3C[C@@H]4C[C@H]([C@H]3C)C4(C)C)co2)cc1

> 50 µg/mL
> 50 µg/mL

Provide IC50 at 24 h for all items below, preserving their order.
1. C[C@H]1C(NCc2coc(-c3ccc(Cl)cc3)n2)C[C@@H]2C[C@H]1C2(C)C (stereo partly specified)
2. CSc1ccccc1Oc1ncccc1/C(N)=N\O

1. > 50 µg/mL
2. > 5 µg/mL

Provide IC50 at 24 h for all items below, preserving their order.
1. CC1CC(N/C(=N\O)c2cccnc2Oc2c(F)cccc2F)CC(C)(C)C1 (stereo unspecified)
2. COc1cc(C)ccc1Oc1ncccc1/C(N)=N/O

31.5 µg/mL
> 5 µg/mL
